Origin of measurements: the supplement of paper PMC10567573

B1: ZNF193 (parent)
chain: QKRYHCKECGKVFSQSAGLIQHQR

# Variants of: B1
# Experimental Protocol: protein stability index of a GFP-peptide fusion (GPS, HEK-293T) (PSI 1-6); higher = more stable;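 further: lentivirally expressed fusions sorted by FACS into six bins by GFP to DsRed ratio, PSI derived from sequencing read proportions per bin multiplied by bin number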
# Condition Notes: c terminus: a fixed tail appended
Measured Endpoint: protein stability index

For record C9G the listed protein stability index is 3.2

For record S16Q the listed protein stability index is 3.88

For record G10D the listed protein stability index is 1.79

For record I20L the listed protein stability index is 3.08

For record E8G the listed protein stability index is 2.66

For record G10E the listed protein stability index is 2.01

For record E8P the listed protein stability index is 2

For record K7S the listed protein stability index is 3.35

For record K2L the listed protein stability index is 2.81

For record L19C the listed protein stability index is 3.12

For record H22N the listed protein stability index is 1.67
